molecular target: T1, human PD-1 on transfected cells (human, UniProt Q15116 25-288); assay: FACS competition on CHO-S cells expressing human PD-1 against biotinylated WBP305BMK1 at 1 µg/ml
T1 construct: also called CHO-S cells expressing human PD-1; human PD-1 transfected CHO-S cells
T1 sequence (Q15116 25-288 limits assumed): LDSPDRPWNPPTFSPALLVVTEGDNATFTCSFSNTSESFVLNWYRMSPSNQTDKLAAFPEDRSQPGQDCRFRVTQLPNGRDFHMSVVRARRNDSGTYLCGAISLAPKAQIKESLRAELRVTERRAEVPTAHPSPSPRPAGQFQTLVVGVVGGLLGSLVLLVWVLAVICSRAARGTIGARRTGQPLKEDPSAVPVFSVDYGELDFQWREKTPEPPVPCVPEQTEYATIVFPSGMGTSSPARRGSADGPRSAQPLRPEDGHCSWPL
property: pIC50
# pIC50 is unitless: minus log10 of the molar concentration; print number only

input: What measured pIC50 goes with 2E5 (antibody, human IgG4, V domains shown) VH: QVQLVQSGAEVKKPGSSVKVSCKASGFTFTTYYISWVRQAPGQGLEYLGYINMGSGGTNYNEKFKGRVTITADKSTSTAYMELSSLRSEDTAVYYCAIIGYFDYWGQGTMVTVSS VL: DVVMTQSPLSLPVTLGQPASISCRSSQSLLDSDGGTYLYWFQQRPGQSPRRLIYLVSTLGSGVPDRFSGSGSGTDFTLKISRVEAEDVGVYYCMQLTHWPYTFGQGTKLEIK ?
output: 8.23
